Reference source for all entries: the Immune Epitope Database (IEDB)

biological target: HLA-A*26:01; test: IEDB peptide-MHC binding, purified MHC/direct/fluorescence; filed as Kd, often an IC50 or EC50 that approximates it; bounds were set here for any values at or beyond the usual limits of such assays; settings: source organism: Vibrio vulnificus YJ016
pKd: −log10 of the molar value.
REPORTED PROPERTY: pKd

>>> endpoint_value("MKYVWPPIM")
"≤ 4.70"

---

biological target: HLA-A*02:06; experiment: IEDB peptide-MHC binding, purified MHC/competitive/fluorescence; filed as Kd, often an IC50 or EC50 that approximates it; bounds were set here for any values at or beyond the usual limits of such assays; details: source organism: Haemophilus influenzae R3021
pKd: −log10 of the molar value.
REPORTED PROPERTY: pKd

>>> endpoint_value("MLEEMQSAV")
"≥ 10.00"

---

molecular target: HLA-B*18:01; assay: IEDB peptide-MHC binding, purified MHC/competitive/fluorescence; filed as Kd, often an IC50 or EC50 that approximates it; bounds were set here for any values at or beyond the usual limits of such assays; details: source organism: Orthohantavirus andesense
pKd: −log10 of the molar value.
In this section we review reported pKd values for a set of sequences.
REPORTED PROPERTY: pKd

>>> endpoint_value("DAVEDFLAF")
"≤ 4.70"
>>> endpoint_value("AVEDFLAFF")
"≤ 4.70"

---

biological target: HLA-B*53:01; assay: IEDB peptide-MHC binding, purified MHC/competitive/radioactivity; filed as Kd, often an IC50 or EC50 that approximates it; bounds were set here for any values at or beyond the usual limits of such assays; details: source organism: Dengue virus 1 Singapore/S275/1990
pKd: −log10 of the molar value.
REPORTED PROPERTY: pKd

>>> endpoint_value("MASSVLLWM")
9.21

---

biological target: HLA-A*24:03; assay: IEDB peptide-MHC binding, purified MHC/direct/fluorescence; filed as Kd, often an IC50 or EC50 that approximates it; bounds were set here for any values at or beyond the usual limits of such assays; settings: source organism: Camelpox virus M-96
REPORTED PROPERTY: Kd (nM)

>>> endpoint_value("EYYFRNEVF")
195

---

target: HLA-B*57:01; test: IEDB peptide-MHC binding, purified MHC/competitive/fluorescence; filed as Kd, often an IC50 or EC50 that approximates it; bounds were set here for any values at or beyond the usual limits of such assays; conditions: source organism: Escherichia coli 536
REPORTED PROPERTY: Kd (nM)

>>> endpoint_value("QTDNDIWFW")
880

---

biological target: HLA-B*15:17; experiment: IEDB peptide-MHC binding, purified MHC/direct/fluorescence; filed as Kd, often an IC50 or EC50 that approximates it; bounds were set here for any values at or beyond the usual limits of such assays; conditions: source organism: Coxiella burnetii
pKd: −log10 of the molar value.
REPORTED PROPERTY: pKd

>>> endpoint_value("IIGLLKIFR")
"≤ 4.70"

---

In this section we review reported Kd values for a set of sequences.
molecular target: HLA-B*58:01; assay: IEDB peptide-MHC binding, purified MHC/competitive/radioactivity; filed as Kd, often an IC50 or EC50 that approximates it; bounds were set here for any values at or beyond the usual limits of such assays; settings: source organism: Dengue virus 1 Singapore/S275/1990
REPORTED PROPERTY: Kd (nM)

>>> endpoint_value("MASSVLLWM")
0.3
>>> endpoint_value("VTARWLWGF")
38
>>> endpoint_value("ASSMVNGVVK")
2790

---

In this section we review reported Kd values for a set of sequences.
target: HLA-A*01:01; experiment: IEDB peptide-MHC binding, purified MHC/competitive/radioactivity; filed as Kd, often an IC50 or EC50 that approximates it; bounds were set here for any values at or beyond the usual limits of such assays; settings: source organism: SARS coronavirus Tor2
REPORTED PROPERTY: Kd

>>> endpoint_value("HTSSMRGVY")
"0.0852 µM"
>>> endpoint_value("FSAVGNICY")
"0.00034 µM"
>>> endpoint_value("AYSNRNRFL")
"≥ 78.1 µM"
>>> endpoint_value("AFIDTIKSL")
"≥ 78.1 µM"
>>> endpoint_value("LFARTRSMW")
"≥ 78.1 µM"
>>> endpoint_value("LVSTQEFRY")
"0.0308 µM"
>>> endpoint_value("GSIIQFPNTY")
"1.05 µM"
>>> endpoint_value("GYTMHANYIF")
"≥ 44.1 µM"
>>> endpoint_value("NYLRKRVMF")
"≥ 78.1 µM"
>>> endpoint_value("FFVYENAFL")
"≥ 78.1 µM"
>>> endpoint_value("MYASALVLL")
"≥ 66 µM"
>>> endpoint_value("MWSFNPETNI")
"≥ 70.4 µM"
>>> endpoint_value("FFTYLCGFI")
"≥ 43.1 µM"

---

biological target: HLA-A*24:02; test: IEDB peptide-MHC binding, purified MHC/direct/fluorescence; filed as Kd, often an IC50 or EC50 that approximates it; bounds were set here for any values at or beyond the usual limits of such assays; conditions: source organism: Orthohantavirus hantanense
REPORTED PROPERTY: Kd (nM)

>>> endpoint_value("RYRTAVCGL")
24

---

target: HLA-A*26:01; test: IEDB peptide-MHC binding, purified MHC/competitive/fluorescence; filed as Kd, often an IC50 or EC50 that approximates it; bounds were set here for any values at or beyond the usual limits of such assays; details: source organism: Bacillus anthracis str. A0488
In this section we review reported Kd values for a set of sequences.
REPORTED PROPERTY: Kd

>>> endpoint_value("SYMLQGLRK")
"≥ 20 µM"
>>> endpoint_value("IQKGMFVVK")
"≥ 20 µM"

---

target: HLA-A*11:01; experiment: IEDB peptide-MHC binding, purified MHC/competitive/radioactivity; filed as Kd, often an IC50 or EC50 that approximates it; bounds were set here for any values at or beyond the usual limits of such assays; conditions: source organism: Dengue virus 1 Brazil/97-11/1997
REPORTED PROPERTY: Kd (µM)

>>> endpoint_value("SIFKLTYQNK")
0.0659

---

target: HLA-C*03:03; assay: IEDB peptide-MHC binding, purified MHC/direct/fluorescence; filed as Kd, often an IC50 or EC50 that approximates it; bounds were set here for any values at or beyond the usual limits of such assays; conditions: source organism: Salmonella enterica subsp. enterica serovar Typhi str. CT18
REPORTED PROPERTY: Kd (nM)

>>> endpoint_value("MMQTYTGAL")
119

---

target: HLA-A*33:01; experiment: IEDB peptide-MHC binding, purified MHC/competitive/radioactivity; filed as Kd, often an IC50 or EC50 that approximates it; bounds were set here for any values at or beyond the usual limits of such assays; settings: source organism: Dengue virus 2 Jamaica/1409/1983
pKd: −log10 of the molar value.
In this section we review reported pKd values for a set of sequences.
REPORTED PROPERTY: pKd

>>> endpoint_value("NWLARVGRER")
6.62
>>> endpoint_value("MISRMLINR")
8.01
>>> endpoint_value("CTLPPLRYR")
7.92

---

biological target: HLA-B*35:01; experiment: IEDB peptide-MHC binding, purified MHC/competitive/fluorescence; filed as Kd, often an IC50 or EC50 that approximates it; bounds were set here for any values at or beyond the usual limits of such assays; details: source organism: Zaire ebolavirus
pKd: −log10 of the molar value.
REPORTED PROPERTY: pKd

>>> endpoint_value("TAAIMLASY")
9.70

---

In this section we review reported IC50 values for a set of sequences.
target: HLA-B*15:01; assay: IEDB peptide-MHC binding, purified MHC/competitive/fluorescence; bounds were set here for any values at or beyond the usual limits of such assays; conditions: source organism: Vaccinia virus Copenhagen
REPORTED PROPERTY: IC50 (µM)

>>> endpoint_value("LSSQMTSTF")
4.85
>>> endpoint_value("QMTSTFIML")
30.2

---

molecular target: HLA-A*26:01; experiment: IEDB peptide-MHC binding, purified MHC/direct/fluorescence; filed as Kd, often an IC50 or EC50 that approximates it; bounds were set here for any values at or beyond the usual limits of such assays; settings: source organism: Haemophilus influenzae
pKd: −log10 of the molar value.
REPORTED PROPERTY: pKd

>>> endpoint_value("MTMRRRLFK")
"≤ 4.70"

---

molecular target: HLA-A*02:01; assay: IEDB peptide-MHC binding, purified MHC/direct/fluorescence; filed as Kd, often an IC50 or EC50 that approximates it; bounds were set here for any values at or beyond the usual limits of such assays; settings: source organism: Escherichia coli O6
pKd: −log10 of the molar value.
REPORTED PROPERTY: pKd

>>> endpoint_value("TPVWHVTSA")
"≤ 4.70"
